All figures here come from PubChem BioAssay.

assay.explanation: VP16 transactivation inhibitors, counter-screen for SRC1 inhibitor project, cell-based, luminescence, high throughput (AID 588824)
stated.conditions: cell-based VP16 transactivation luciferase luminescence; at 3.6 µM; hits give high values
measure.name: inhibition (%)
Answers are plain numbers, in %.

The cases that follow already have their inhibition on record.
{"columns": ["compound", "observed.value"],
 "data": [
  ["NC(CO)C(=O)NNCc1ccc(O)c(O)c1O (configuration not stated)", -2.94],
  ["COc1ccc(-c2coc3c(C(=O)NCc4ccc(OC)c(OC)c4)cccc23)c(C)c1", 41.2],
  ["CCC(=O)c1ccc(Oc2nc3c(c(=O)n(C)c(=O)n3C)n2CC)cc1", 20.9],
  ["COc1ccc2[nH]c3c(C)c4ccncc4c(C)c3c2c1", 52.5],
  ["C/C(=N\\NC(=O)C(C)Oc1ccc([N+](=O)[O-])cc1)c1ccccn1 (configuration not stated)", 45.6],
  ["Cc1ccc(Oc2ccc(C(=O)NCc3ccncc3)cc2)cc1", 23.4],
  ["COc1ccc(CCC(=O)Nc2ccc(Cl)c(S(=O)(=O)N3CCCC3)c2)cc1", 27.8],
  ["CCN(Cc1ccncc1)C(=O)CC1C(=O)NCCN1Cc1ccc(F)c(F)c1 (configuration not stated)", 17],
  ["O=C(Nc1ccccc1Oc1ccccc1)c1cc([N+](=O)[O-])ccc1Cl", 33.9],
  ["CC(=O)c1cccc(N=c2scc(-c3ccc(S(=O)(=O)N4CCOCC4)cc3)n2CCO)c1", 49.4]
]}

Hi team, please reply with inhibition for each item in this list.
1. CC(C)Cn1c(N)c(C(=O)COC(=O)c2cc3ccccc3cc2O)c(=O)n(C)c1=O
2. Cc1c(C(C)C)c(=O)n(-c2ccc(S(=O)(=O)NCc3ccccc3)cc2)n1C
3. Cc1csc(SCC(=O)c2cc(C)n(Cc3cccs3)c2C)n1
4. CCC(C)(C)c1ccc(OCCCC[n+]2cccc(C)c2C)c(C(C)(C)CC)c1
5. CC1CCc2nc(N)c(C#N)c(-c3cccnc3)c2C1 (configuration not stated)
6. CC1(C)CC(NCc2ccccc2)CCO1 (configuration not stated)
7. Clc1ccc(CSc2nnc(-c3ccncc3)o2)cc1

# output
1. 8.44
2. 30.9
3. -42.6
4. 71
5. 58.6
6. -4.92
7. 32.8

Hi team, please reply with inhibition for each item in this list.
1. Cc1[nH]c2ccccc2c(=O)c1C(=O)/C=C/c1ccccc1
2. CCN(CC)S(=O)(=O)c1ccc(N2CCOCC2)c(NC(=O)c2cc(-c3ccccn3)nc3ccccc23)c1
3. CN(c1ncnc(N)c1[N+](=O)[O-])C1CCCCC1
4. Cc1cc(/C=C2\Sc3ccccc3N2C)cc(C)[n+]1CC1CCCO1 (configuration not stated)
5. c1cn(-c2ncnc3sc4c(c23)CCCC4)cn1

# output
1. 59.6
2. -1.24
3. 55.3
4. 75.3
5. 7.19

---

System: DAF-12 nuclear receptor (Heterodera glycines), GAL4-LBD fusion
assay.explanation: H. glycines DAF-12 receptor agonists, confirmation, cell-based, luminescence, HEK293, GAL4-LBD fusion (AID 743050);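 note: 0% = DMSO low control and 100% = 2 mM sodium butyrate high control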
stated.conditions: HEK293 GAL4-hgDAF12 luciferase reporter, agonist mode; at 6.8 µM; percent of butyrate response
The list shows a part of the results. Calls of active or inactive are those of the source.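 How the source made its calls: active means mean activation over triplicate wells above the hit cutoff derived from the earlier primary screen (cut at about 11% in these data); inactive means the rest.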
// one of active, inactive, no free text

Some entries whose results are on file:
{"columns": ["compound", "class.assignment"],
 "data": [
  ["O=C(Nc1ccccc1)Nc1nc2ccccc2s1", "active"],
  ["O=C(Nc1ccc2c(c1)CCC2)c1ccc(Br)s1", "active"],
  ["O=[N+]([O-])c1cc(S(=O)(=O)N2CCCC2)ccc1NN=C1CCCC1", "inactive"],
  ["O=C(NCCc1ccc(F)cc1)c1ccc2nccnc2c1", "active"],
  ["Oc1ccccc1-c1cc(-c2ccc(Cl)cc2)n[nH]1", "active"],
  ["COc1ccc(C2=NN(C(=O)c3ccccc3C(=O)O)C(c3ccccc3O)C2)cc1 (configuration not stated)", "inactive"],
  ["COc1ccc(NC(=O)Nc2ccc3nsnc3c2)cc1", "active"],
  ["CC(C)(C)c1csc(NC2=NS(=O)(=O)c3ccccc32)n1", "active"]
]}

# input Which outcome was entered for the compound Cc1ccc(N/C=C/C(=O)c2ccccc2)cc1C in this test?
# output inactive

# input Which outcome was entered for the compound CSc1ccc(/C=N/NC(=O)c2cccc(Cl)c2)cc1 in this test?
# output active

# input Which outcome was entered for the compound CC(C)C(=O)Nc1cccc(C(=O)Nc2ccc3c(c2)OCO3)c1 in this test?
# output active

# input Which outcome was entered for the compound CC(=O)Nc1ccc(-c2nc3ccccc3o2)cc1 in this test?
# output active
